System: K4 kissing-loop RNA reporter
Experiment: apparent KD of K4 kissing-loop reporter; higher = weaker reporter binding
Details: Eterna round: R107; input ligand: tryptophan 2.4 mM
# if value of apparent KD of K4 kissing-loop reporter reaches 200 nM, tag condition met; if it stays below, tag condition not met

Construct sequence: ACACUCGGCUCGGCCGCCACUCCAGUGAUGUUGGAGUCAUAGCUAUGACGAGAAGAGCGUUUUCGGAGGACCGGGAGCUCACAGG [Leveeder]
Tgt: K4 kissing-loop RNA reporter
Class label: condition met

Construct sequence: AUCGUUGUCUGAGGAUAUCGGUUAACUGUAGUGAUGUUACAGAAAAUUCAUAUAAUAUUUUCUAUUCGAGAAGGCAGACUACGUA [JR_ExcFMNB_Sub018]
Tgt: K4 kissing-loop RNA reporter
Class label: condition not met

Construct sequence: GCGCGUCAUGUCGGCGGUGACUACGCCGAUACCAGCCGGGAAACCGGCCCUUGGCAGCGGCGCGCCGGAGUGAUGUUCCGACAGA [#2 Exclusion - Theophylline A Attempt #3 (HarryS)]
Tgt: K4 kissing-loop RNA reporter
Class label: condition not met

Construct sequence: UAUGAAUGUGGAGGAUAUUGAUUGAAUCUUGGUCUGGAGUGAUGUUCCGGGAAGCCUUGGAUUCAUCGAGAAGGCCAUGGAUAGU [#03 K4 FMN B Same State]
Tgt: K4 kissing-loop RNA reporter
Class label: condition not met

Construct sequence: AAAUAAAACUAUGAUACCAGUCAUCACAGAGUGAUGUUUUGUGGCAUUUUAAACUUGGCAGACCCUUGGCAGCAUGAUAUAGGAG [theeternabot_sameState_KL_Theo_B_8]
Tgt: K4 kissing-loop RNA reporter
Class label: condition met

Construct sequence: UAAUAUAAUCUGUCGUAAACAAUAAUUAGUCAGGAUAUCGUAUAUUCGAGAAGGGACACUAUCUAGUGAUGUUAGAUAUUUCGUU [JR_SSFMNA_Sub026]
Tgt: K4 kissing-loop RNA reporter
Class label: condition not met

Construct sequence: AGUGAACGAGCGGCCGCCACUAACUGAGUGAUGUUCGUGAGUAGUGCUGUUCUCAUGAUUGUUUUUAGGACCGGGUUCGAUGUUG [ttbjmullin]
Tgt: K4 kissing-loop RNA reporter
Class label: condition met

Construct sequence: GGAUCCACCAGUGAUGUUGGAGAAAACUCUAAGGAUAUGACGAAAGUCAGAAGGUGGUAGACUGGACAAAGUCCGGUGGGAUCCA [FmnA10 U30+G78]
Tgt: K4 kissing-loop RNA reporter
Class label: condition met

Construct sequence: GCCUACGCUGCAGGAUAUAGUUACAGCGACUUAGCCGUUGUAUGUCCAUGGUUCAGUGAUGUUGAACUAGAAGGGCAGCGUAGGC [#02 K4 FMN B Exclusion]
Tgt: K4 kissing-loop RNA reporter
Class label: condition not met

Construct sequence: UUGAGCCUGACGCAAGUCAGGCUCUGCGAGCGAGGACCGGUACGGCCGCCACUCGGUGCAGUGAUGUUGCAUGGCCGCAAGGCCG [#2 Exclusion - Tryptophan A Attempt #17 (HarryS)]
Tgt: K4 kissing-loop RNA reporter
Class label: condition met

Construct sequence: AUAAACUUGCAGUGAUGUUGCAAGUGAGACUAGGAUAUCAGGAAGCUGAGAAGGAGUCAUCUCCUUCAAACAUCACUAUGAAGGA [whbob_SS_FMNA__2th178]
Tgt: K4 kissing-loop RNA reporter
Class label: condition met

Construct sequence: AGUUCUUGCCGAAGGAGCGAGGCAGAGUGAUGUUCUGCAGAUGUCGAAAGACAUCAACUGCCUCAGGUAGGUCGCGGCAUGAACA [#05 K4 Arginine B Exclusion]
Tgt: K4 kissing-loop RNA reporter
Class label: condition not met

Construct sequence: UUGAUAUGAUAAUAUCCUGUUUGAUAAAGACAGGAUAUAGAAAAUACUAGAAGGGUCAUUAUAUGCAGUGAUGUUGCAAAUAAGU [Exclusion FMN A Gf 23]
Tgt: K4 kissing-loop RNA reporter
Class label: condition not met

Construct sequence: GUCCAACCUGGAGGAUAUCUGCUGUCCAGUGAUGUUGGACACUUUAGUAAAGGCCGGGUAGCCCGCAGAGAAGGCCGGAGUUGCC [Arceer]
Tgt: K4 kissing-loop RNA reporter
Class label: condition met

Construct sequence: ACAUCGGUUGAGAGUGAUGUUCCUUGUGUUCGAGGACCGGUACGGCCGCCACUCGGGUAGAAAAUAAAAGAUGUGUUUGAUUUUU [BDazzled - #15 SS Tryptophan A]
Tgt: K4 kissing-loop RNA reporter
Class label: condition met

Construct sequence: GCCGUACGCAUGGAUACCAGCAAUUAUGCUCGUGAUCUAGUGAUGUUAGUGGCGAAAGUUUGCCCUUGGCAGCCAUGCGUACGGC
Tgt: K4 kissing-loop RNA reporter
Class label: condition not met

Construct sequence: UUAUAUAAUUUGUCUUUUUUAACAUUAAGUCAGGAUAUCGUAUAUUCGAGAAGGGACACAUGCUAGUGAUGUUAGCUAUUUCUUU [JR_ExcFMNA_Sub016]
Tgt: K4 kissing-loop RNA reporter
Class label: condition not met

Construct sequence: ACUAAGGUUUUUGGAGCAGUGAUGUUGCUCCGAGGACCGGUACGGCCGCCACUCGGUGCAUGUAUGCGCUUCACUCCGGAAGUUG [Bieron]
Tgt: K4 kissing-loop RNA reporter
Class label: condition not met

Construct sequence: AGACGCCAGUCGGCCGCCACUCACAGCAGUGAUGUUGCUGAGAAUCUAGAAGAGUGAUGUUCUUAGAGGACCGGGACUCCAGUCG [Same State Tryptophan B GF 7]
Tgt: K4 kissing-loop RNA reporter
Class label: condition met

Construct sequence: GUACGCUCUCGAGUGAUGUUCGGUAAUCCUUAGGAUAUCGCUUUUGCGAGAAGGAAGGGAAUGAGGAAACUCGUUCUGAGUGUAC [FMN A 21]
Tgt: K4 kissing-loop RNA reporter
Class label: condition met

Construct sequence: UGACUGGACUGAAGGAGCGCUAAAACUCCUAGUGAUGUUAGGAAAACGAGACAAAGUCUCGAGCAGGUAGGUCGCAGUCUAGUCU [ArgBS 21 #SwitchBubble #StaticStem]
Tgt: K4 kissing-loop RNA reporter
Class label: condition not met

Construct sequence: UCUGGUAUAUCUGAUACCAGAGAAUAGAAUCAAUUGAAUAUGGAGUGAUGUUCCAUAAAACUCCCUUGGCAGCAGAUAAUCAUAU [Same State Theophylline B GF 22]
Tgt: K4 kissing-loop RNA reporter
Class label: condition not met

Construct sequence: CAUACGCAUGGAGGAUAUGAGAUUUCUCAUAUUAUUUAAUAUUCUCAGUGAUGUUGAGAUUUAAACUCAGAAGGCCAUGUGUAUG [Ex FMN B 6]
Tgt: K4 kissing-loop RNA reporter
Class label: condition met

* * *

Measured apparent KD of K4 kissing-loop reporter values are reported for all entries that follow.
System: K4 kissing-loop RNA reporter;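 note: bound reporter read as fluorescence of individual clusters on recovered sequencing chips by microscopy, with normalized cluster intensities fitted with a binding model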
Experiment: apparent KD of K4 kissing-loop reporter; higher = weaker reporter binding
Settings: Eterna round: R107; input ligand: theophylline 20 uM

Construct sequence: UAUGAAUGUGGAGGAUAUUGAUUGAAUCUUGGUCUGGAGUGAUGUUCCGGGAAGCCUUGGAUUCAUCGAGAAGGCCAUGGAUAGU [#03 K4 FMN B Same State]
Tgt: K4 kissing-loop RNA reporter
apparent KD of K4 kissing-loop reporter, nM: 109
//
Construct sequence: AACGUUUUGAGAAGGAGCGCGAUAAGCAGUGAUGUUGCUAUAAUUCUAUUUCUAUUUAAUUCGCAGGUAGGUCGCUCAAUACGUA [JR_SSArginiB_Sub019]
Tgt: K4 kissing-loop RNA reporter
apparent KD of K4 kissing-loop reporter, nM: 138
//
Construct sequence: GCAGGACGAGGAGGAGGAUGAAUUACUGAAGGAGCGCAUAUUUUUGCAGGUAGGUCGCGGUAAACAAGUAUAGUGAUGUUAUAUA [SSArgA.M]
Tgt: K4 kissing-loop RNA reporter
apparent KD of K4 kissing-loop reporter, nM: 514
//
Construct sequence: GUAGACAGGCUGCGAACCUAGUCUACAGACUAGGAUAUCAGGAAACUGAGAAGGAGUCUAGUUGCAGUGAUGUUGCAAGAAUAAU [KL-SSFMN-A25]
Tgt: K4 kissing-loop RNA reporter
apparent KD of K4 kissing-loop reporter, nM: 135
//
Construct sequence: GCGCGUCAUGUCGGCGGUGACUACGCCGAUACCAGCCGGGAAACCGGCCCUUGGCAGCGGCGCGCCGGAGUGAUGUUCCGACAGA [#2 Exclusion - Theophylline A Attempt #3 (HarryS)]
Tgt: K4 kissing-loop RNA reporter
apparent KD of K4 kissing-loop reporter, nM: 359
//
Construct sequence: GGGUGGCAGGCGGCCGCCACUCUUAGCAGCCAGUGAGUGAUGUUCGUGGCGGAAGAAUGUUCGUAGAGGACCGGGUUUGUUGUUC [Same State Tryptophan B GF 21]
Tgt: K4 kissing-loop RNA reporter
apparent KD of K4 kissing-loop reporter, nM: 254
